# method: Toxicokinetics in the 28-day study
# Assay type: in vivo, mice
# condition_label: male, CD1, mouse, in vivo, po, 80 mg/kg, male mice; 80 mg/kg; Day 28
measure_name: Tmax (min)
Give bare numbers, in min.

For this molecule ( c1coc(CNc2ncnc3[nH]cnc23)c1 ), measured Tmax is 15

----------
# method: Toxicokinetics in the 28-day study
# Format: in vivo, mice
# condition_label: female, CD1, mouse, in vivo, po, 250 mg/kg, female mice; 250 mg/kg; Day 28
measure_name: half-life
Numeric answer plus unit only.

For this compound ( c1coc(CNc2ncnc3[nH]cnc23)c1 [MB-905, kinetin] ), measured half-life is 2.59 h

----------
# method: Toxicokinetics in the 28-day study
# Format: in vivo, mice
# condition_label: female, CD1, mouse, in vivo, po, 10 mg/kg, female mice; 10 mg/kg; Day 28
measure_name: Tmax (min)
Give bare numbers, in min.

For this compound ( c1coc(CNc2ncnc3[nH]cnc23)c1 [MB-905, kinetin] ), measured Tmax is 15

----------
# method: Pharmacokinetics of MB-905 in three pre-formulations in mice
# Assay type: in vivo
# condition_label: mouse, plasma, po, 3 mg/kg, 5% ethanol, 30% Propylene Glycol, 45% PEG 400, 20% water, 3 mg/kg (v.o.)
measure_name: AUC

For this molecule ( c1coc(CNc2ncnc3[nH]cnc23)c1 ), measured AUC is 98.4 ng·h/mL

----------
# System: SARS-COV-2
# method: Combination with SARS-COV-2 nsp14 (exonuclease) inhibitors in Calu-3 cells, infectious virus titers
# Format: cell-based
# condition_label: Severe acute respiratory syndrome coronavirus 2; Calu-3; alone or in combination as labelled
Give pEC50 for every item shown.
One number for each entry, as −log10 of the molar value.

Consider the worked cases shown below.
{"columns": ["compound", "study_system", "reported"],
 "data": [
  ["C[C@@H]1CCO[C@H]2Cn3cc(C(=O)NCc4ccc(F)cc4F)c(=O)c(O)c3C(=O)N12", "SARS-COV-2", 5.28],
  ["COC(=O)N[C@H](C(=O)N1CCC[C@H]1C(=O)Nc1ccc([C@@H]2CC[C@@H](c3ccc(NC(=O)[C@@H]4CCCN4C(=O)[C@@H](NC(=O)OC)C(C)C)cc3)N2c2ccc(C(C)(C)C)cc2)cc1)C(C)C", "SARS-COV-2", 6.40],
  ["Cc1nnc(C(=O)NC(C)(C)c2nc(C(=O)NCc3ccc(F)cc3)c(O)c(=O)n2C)o1", "SARS-COV-2", 5.32],
  ["NC(=O)c1nc(F)c[nH]c1=O", "SARS-COV-2", 5.11],
  ["COC(=O)N[C@H](C(=O)N1CCC[C@H]1c1nc(-c2ccc(-c3ccc(-c4c[nH]c([C@@H]5CCCN5C(=O)[C@@H](NC(=O)OC)C(C)C)n4)cc3)cc2)c[nH]1)C(C)C", "SARS-COV-2", 6.15]
]}

Okay, here is my list. What is pEC50 for each of these?
1. c1coc(CNc2ncnc3[nH]cnc23)c1
2. COC(=O)N[C@H](C(=O)N1CCC[C@H]1c1nc2cc([C@H]3CC[C@H](c4cc5nc([C@@H]6CCCN6C(=O)[C@@H](NC(=O)OC)[C@@H](C)OC)[nH]c5cc4F)N3c3cc(F)c(N4CCC(c5ccc(F)cc5)CC4)c(F)c3)c(F)cc2[nH]1)[C@@H](C)OC
3. CCC(CC)COC(=O)[C@H](C)N[P@](=O)(OC[C@H]1O[C@@](C#N)(c2ccc3c(N)ncnn23)[C@H](O)[C@@H]1O)Oc1ccccc1 [Remdesivir, reference compound]

## Output
1: 6.52; 2: 6.15; 3: 7.05

Given the compound CC(C)C(=O)OC[C@H]1O[C@@H](n2ccc(NO)nc2=O)[C@H](O)[C@@H]1O [MK-4482, N-4-hydroxycytidine-5′-isopropyl ester, reference compound] and test system SARS-COV-2, the measured pEC50 is 6.10
